test-protocol: gradient 5% acetonitrile 3 min, to 50% in 2 min, to 85% in 15 min, held 3 min, 100 µL/min
condition-context: column: Zorbax Extend-C18 2.1 x 50 mm; eluents: water / acetonitrile, 0.1% formic acid
RP-LC retention time values, listed per item
Provide the measurement as a number trailed by its unit.

Known RP-LC retention time results, listed for orientation:
Documented RP-LC retention time of "Cc1nnsc1C(=O)Nc1onc2c1CSC2" : 666 s

Documented RP-LC retention time of O=C(c1ccsc1)N1CCCC(OCc2nc(C3CC3)no2)C1 (stereo not given) : 766 s

Documented RP-LC retention time of "CC(C)N1CCN(Cc2ccc(C(=O)NC3CC3)cc2)C(=O)C1=O" : 604 s

Documented RP-LC retention time of "Cc1cc(C(=O)NCC2CCN(C(=O)Oc3ccccc3)CC2)c(C)o1" : 829 s

---
Documented RP-LC retention time of "CCOC(=O)c1cccc(N2C=C(C#N)S(=O)(=O)c3ccc(Cl)cc32)c1" : 996 s

Documented RP-LC retention time of CCOCCCN1C(=O)CN(C2CCCCCC2)C(=O)C1c1ccc(OC)cc1 (stereo not given) : 902 s

Documented RP-LC retention time of "CCOC(=O)c1nnc2c(-c3ccccc3)cnn2c1C" : 961 s

Documented RP-LC retention time of "O=C(CN1CCN(C(=O)Nc2ccc(Cl)cc2)CC1=O)NC1CCCC1" : 690 s

Documented RP-LC retention time of "CCn1cnc(S(=O)(=O)N2CCC(C(=O)Nc3ccc(OC)c(Cl)c3)CC2)c1" : 724 s

Documented RP-LC retention time of "O=C(CCn1nnc2cc(-c3noc(COc4ccc(F)cc4)n3)ccc21)N1CCCC1" : 877 s

Documented RP-LC retention time of "COc1ccc(C(=O)Nc2cccn3c(C4CCC4)nnc23)cc1F" : 769 s

Documented RP-LC retention time of "COc1ccc(CC(=O)Nc2ccc3c(c2)Sc2ncccc2C(=O)N3C)cc1Cl" : 807 s

Documented RP-LC retention time of CCOC(=O)C1=C(C)NC2=C(C(=O)c3ccccc32)C1c1ccc(OC)c(OC)c1 (stereo not given) : 902 s

Documented RP-LC retention time of "COc1cc(OC)cc(-c2noc(Cn3ccn4nc(-c5ccc(Cl)cc5)cc4c3=O)n2)c1" : 1130 s

Documented RP-LC retention time of CCCN(CC1CCOC1)C(=O)Nc1ccc(C)cc1 (stereo not given) : 764 s

Documented RP-LC retention time of "Cc1cccc(NC(=O)C2CCN(S(=O)(=O)c3cc(-c4noc(C5CC5)n4)cs3)CC2)c1C" : 1020 s

Documented RP-LC retention time of "O=C(NCc1ccco1)N1CC2CN(S(=O)(=O)c3cccc(F)c3)CC(C1)O2" : 744 s

Documented RP-LC retention time of Cc1ccc(C)c(NC(=O)C(C)Oc2cc(C(F)(F)F)c3c(C)nn(C)c3n2)c1 (stereo not given) : 1040 s

Documented RP-LC retention time of "O=C(Cn1nc(-c2ccccc2)c2cc(Cl)ccc21)NC1CCCC1" : 1130 s

Documented RP-LC retention time of "CCCC(=O)Nc1nc(-c2ccc3c(c2)NC(=O)CO3)cs1" : 728 s

----------
RP-LC retention time values, listed per item
test-protocol: gradient 5% acetonitrile 3 min, to 50% in 2 min, to 85% in 15 min, held 3 min, 100 µL/min
condition-context: column: Zorbax Extend-C18 2.1 x 50 mm; eluents: water / acetonitrile, 0.1% formic acid
API: value field is a number in s; no unit string.

Known RP-LC retention time results, listed for orientation:
Documented RP-LC retention time of "Cc1nn(-c2ccc(C(=O)N3CCOCC3)cc2)c2c1C(=O)CC(C)(C)C2" : 689

Documented RP-LC retention time of "CCC(=O)N(C1CCOCC1)C1CCN(Cc2cn(C)c3ccccc23)CC1" : 638

---
Documented RP-LC retention time of "O=C(CCCN1C(=O)c2cccnc2Sc2ccccc21)N1CCN(c2ccccn2)CC1" : 592

Documented RP-LC retention time of "Cc1ccc(NC(=O)N2[C@H]3CC[C@@H]2c2cncnc2C3)cc1F" : 738

Documented RP-LC retention time of "C=CCn1c(=O)c2cnc(Nc3ccc(N4CCN(C)CC4)cc3)nc2n1-c1cccc(C(C)(C)O)n1" : 644
